# ASSAY OVERVIEW: absolute recovery over mixed-bed multilayer solid-phase extraction; higher = better recovery
# TEST SETTINGS: wastewater effluent; enrichment method: SPE
Grouping rule (absolute recovery): class 1 (below 80%), class 2 (80% to below 90%), class 3 (90% or more)

COMPOUND	GROUP
O=c1[nH]sc2ccccc12	class 1
COC(=O)C(Cc1ccccc1)NC(=O)C(CC(=O)[O-])[NH2+]CCC(C)(C)C (centres undefined)	class 3
CCC(C)(C)C(=O)OC1=C(c2ccc(Cl)cc2Cl)C(=O)OC12CCCCC2	class 1
O=P1(N(CCCl)CCCl)NCCCO1 (centres undefined)	class 3
CC1(C)C(=O)Oc2ccc(OS(C)(=O)=O)cc21	class 1
CC(=O)OC1C(C)OC(n2cc(F)c(N)nc2=O)C1OC(C)=O (centres undefined)	class 3
CC(=O)N(C)c1ccccc1	class 2
c1ccc2c(c1)Cc1ccccc1N1CC[NH2+]CC21 (centres undefined)	class 2
CNC(=C[N+](=O)[O-])NCCSCc1ccc(C[N+](C)(C)[O-])o1	class 1
CN(C(=O)CO)c1c(I)c(C(=O)NCC(O)CO)c(I)c(C(=O)NCC(O)CO)c1I (centres undefined)	class 1
Cc1nnc(-c2ccccc2)c(=O)n1N	class 3
CCCOCC(=Nc1ccc(Cl)cc1C(F)(F)F)n1ccnc1	class 3
CC1(C)CON(Cc2ccccc2Cl)C1=O	class 2
CCCN(CCC)C(=O)SCc1ccccc1	class 1
CS(=O)(=O)c1ccc(C(=O)[C-]2C(=O)CCCC2=O)c(Cl)c1	class 3

====

# ASSAY OVERVIEW: LC retention time (Atlantis T3, 5-95% MeOH gradient, 0.1% formic acid); higher = more retained / less polar
Label satisfied when LC retention time >= 20 min; otherwise not satisfied.

MOLECULE	GROUP
C[NH2+]CC(c1ccc(O)cc1)C1(O)CCCCC1 (stereo not drawn)	not satisfied
CCC1OC(=O)C(C)C(OC2CC(C)(OC)C(O)C(C)O2)C(C)C(OC2OC(C)CC([NH2+]C)C2O)C(C)(O)CC(C)C[NH+](C)C(C)C(O)C1(C)O (stereo not drawn)	not satisfied
Nc1[nH]c2ccccc2[nH+]1	not satisfied
O=C([O-])COCC[NH+]1CCN(C(c2ccccc2)c2ccc(Cl)cc2)CC1 (stereo not drawn)	not satisfied
C[NH2+]CCCC(C#N)(c1ccc(OC)c(OC)c1)C(C)C (stereo not drawn)	not satisfied
CC1COC(Cn2cncn2)(c2ccc(Oc3ccc(Cl)cc3)cc2Cl)O1 (stereo not drawn)	satisfied

====

# ASSAY OVERVIEW: absolute recovery over mixed-bed multilayer solid-phase extraction; higher = better recovery
# TEST SETTINGS: nanopure water; enrichment method: SPE

COMPOUND	absolute recovery / %
C1=Cc2ccccc2Nc2ccccc21	90.1
Cc1c(N(C)C)c(=O)n(-c2ccccc2)n1C [4-Dimethylaminoantipyrin (=Aminopyrin)]	72.8
CNC(=O)ON=C(C)SC	82.7
CC(=O)Nc1ccc(S(=O)(=O)[N-]c2nccs2)cc1	98.7
COc1ccc(C(C[N+](C)(C)[O-])C2(O)CCCCC2)cc1 (centres undefined) [Venlafaxine-N-Oxide]	93.2
N#Cc1cc(I)c([O-])c(I)c1	103
Cc1cc(Cl)ccc1OCC(=O)[O-]	96.1
C[NH2+]CCC(c1ccccc1)c1ccccn1 (centres undefined)	59.5
C=CCC1C=C(C)CC(C)CC(OC)C2OC(O)(C(=O)C(=O)N3CCCCC3C(=O)OC(C(C)=CC3CCC(O)C(OC)C3)C(C)C(O)CC1=O)C(C)CC2OC (centres undefined)	82.7
